Values were extracted from ChEMBL document CHEMBL1151717.

Measured pIC50 of individual entries
studyTarget: Cytochrome P450 11B1, mitochondrial (Homo sapiens)
Sequence (P15538 whole entry): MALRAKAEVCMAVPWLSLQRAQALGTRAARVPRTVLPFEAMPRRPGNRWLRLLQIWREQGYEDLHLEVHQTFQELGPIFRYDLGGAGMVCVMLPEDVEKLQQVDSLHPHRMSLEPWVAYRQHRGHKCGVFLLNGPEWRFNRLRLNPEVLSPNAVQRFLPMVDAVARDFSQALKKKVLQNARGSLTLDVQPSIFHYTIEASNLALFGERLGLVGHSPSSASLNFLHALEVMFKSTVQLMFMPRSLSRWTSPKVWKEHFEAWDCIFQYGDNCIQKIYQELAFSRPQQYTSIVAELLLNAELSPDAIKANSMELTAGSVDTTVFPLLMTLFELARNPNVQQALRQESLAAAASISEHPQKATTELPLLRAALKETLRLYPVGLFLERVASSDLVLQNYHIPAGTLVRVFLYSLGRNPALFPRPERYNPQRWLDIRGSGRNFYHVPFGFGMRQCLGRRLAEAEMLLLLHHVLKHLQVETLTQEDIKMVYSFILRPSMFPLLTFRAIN
pIC50: −log10 of the molar value.
assayEndpoint: pIC50

                                   compound  recordedvalue
0           CCN1C(=O)CCc2cc(-c3cccnc3)ccc21           5.29
1             N#CC1=Cc2ccc(-c3cccnc3)cc2CC1           6.54
2         COc1cncc(-c2ccc3c(c2)CCC(=O)N3)c1           6.47
3               S=C1CCc2cc(-c3cccnc3)ccc2N1           6.24
4         COc1cncc(-c2ccc3c(c2)CCC(=O)C3)c1           6.72
5  OC1CCc2cc(-c3cccnc3)ccc2C1 (stereo unspecified)           5.31
